- measured.target: HiDapE (Haemophilus influenzae)
- Sequence (P44514 whole entry): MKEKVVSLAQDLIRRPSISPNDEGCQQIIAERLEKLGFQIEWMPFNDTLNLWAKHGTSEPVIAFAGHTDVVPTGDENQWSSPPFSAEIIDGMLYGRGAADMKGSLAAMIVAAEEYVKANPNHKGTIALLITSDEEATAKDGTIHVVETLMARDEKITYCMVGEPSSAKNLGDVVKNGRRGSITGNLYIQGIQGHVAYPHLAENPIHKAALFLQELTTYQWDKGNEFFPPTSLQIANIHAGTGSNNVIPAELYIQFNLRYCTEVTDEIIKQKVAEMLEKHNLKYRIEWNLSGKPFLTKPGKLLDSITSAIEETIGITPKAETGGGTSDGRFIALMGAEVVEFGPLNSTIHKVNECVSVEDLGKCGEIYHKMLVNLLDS
- assay.procedure: DapE inhibition, ninhydrin-based assay
- Format: biochemical
- details: 100 µM inhibitor, read-out: DapE % Inhib at 100 µM
For each record, write down the corresponding inhibition at 100 µM.
Give bare numbers, in %.

[[record]]
compound = "COc1ccc(C(=O)NC2CCC2=O)c(O)c1 (stereo not drawn)"
measured_target = "HiDapE (Haemophilus influenzae)"
recorded_measurement = 73


Give me inhibition at 100 µM for each of these compounds, listed below.
1. CC(C)[C@H](NC(=O)OCc1ccccc1)C(=O)NC1CCC1=O (mixture of isomers)
2. O=C(CCc1nc2ccccc2[nH]1)NC1CCC1=O (stereo not drawn)
3. O=C(NC1CCC1=O)c1cnc2ccccc2c1 (stereo not drawn)
4. Cc1ccc(S(=O)(=O)N[C@@H](Cc2ccccc2)C(=O)NCC2(O)CC2)cc1
5. COc1cccc(CC(=O)NC2CCC2=O)c1 (stereo not drawn)

Solution:
1: 53.9; 2: 84.7; 3: 48; 4: 36.4; 5: 27

----------
- measured.target: UniProt:P44514
- assay.procedure: DapE inhibition, ninhydrin-based assay
- Type: biochemical
- details: 100 µM inhibitor, read-out: DapE % Inhib at 100 µM
recorded.endpoint: inhibition at 100 µM (%)
One number for each entry, in %.

Example compounds with recorded inhibition at 100 µM:
[[record]]
compound = "Cc1ccc(S(=O)(=O)N[C@@H](Cc2ccccc2)C(=O)NCC(C)(C)O)cc1"
recorded_endpoint = "inhibition at 100 µM"
recorded_measurement = 19.1

[[record]]
compound = "O=C(N[C@H](Cc1ccccc1)C(=O)NC1CCC1=O)OCc1ccccc1 (mixture of isomers)"
recorded_endpoint = "inhibition at 100 µM"
recorded_measurement = 97.9

[[record]]
compound = "O=C1CCC1NS(=O)(=O)c1ccc(C(F)(F)F)cc1 (centres unmarked)"
recorded_endpoint = "inhibition at 100 µM"
recorded_measurement = 22.6


// switching to the query compound
Problem: Need inhibition at 100 µM, item Cc1ccc(C(=O)NC2CCC2=O)cc1 (centres unmarked) [3c, 4-Methyl-N-(2-oxocyclobutyl)benzamide]
Solution: 58.1

----------
recorded.endpoint: melting point

// worked examples, melting point included
[[record]]
compound = "O=C(NC1CCC1=O)c1ccc(Br)cc1 (stereo not drawn) [3f, 4-Bromo-N-(2-oxocyclobutyl)benzamide]"
recorded_measurement = "104 to 105 °C"

[[record]]
compound = "Cc1cccc(C(=O)NC2CCC2=O)c1 (stereo not drawn) [3b, 3-Methyl-N-(2-oxocyclobutyl)benzamide]"
recorded_measurement = "94 to 96 °C"

[[record]]
compound = "COc1ccc(S(=O)(=O)N[C@H](C(=O)NC2CCC2=O)C(C)C)cc1 (mixture of isomers)"
recorded_measurement = "179 to 181 °C"

[[record]]
compound = "Cc1ccccc1C(=O)NC1CCC1=O (stereo not drawn) [3a, 2-Methyl-N-(2-oxocyclobutyl)benzamide]"
recorded_measurement = "100 to 102 °C"

[[record]]
compound = "Cc1ccc(C(=O)NC2CCC2=O)cc1 (stereo not drawn) [3c, 4-Methyl-N-(2-oxocyclobutyl)benzamide]"
recorded_measurement = "149 to 150 °C"


Would you be so kind as to report melting point for each listed record?
1. COc1cccc(CC(=O)NC2CCC2=O)c1 (stereo not drawn)
2. O=C(NC1CCC1=O)c1ccccc1O (stereo not drawn) [3i, 2-Hydroxy-N-(2-oxocyclobutyl)benzamide]
3. O=C(NC1CCC1=O)c1ccncc1 (stereo not drawn) [3p, N-(2-Oxocyclobutyl)isonicotinamide]
4. COc1cc(C(=O)NC2CCC2=O)cc(OC)c1OC (stereo not drawn)

Solution:
104 to 105 °C
149 to 151 °C
119 to 121 °C
144 to 146 °C
